Form field: PBM binding z-score (one value per entry).
- System: RARb:RXRa (NR concentration 270 nM, RXRa partner concentration 90 nM)
- Procedure Text: PBM binding z-score (relative to random genomic background probes); higher = stronger binding; sequences stand for … in GC…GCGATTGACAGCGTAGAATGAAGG
// return just the number, without any unit appended

* CCTGCAAGGTCATGGTCAGCTAATCTACAGTATG | 5.04
* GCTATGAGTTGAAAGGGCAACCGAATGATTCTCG | 2.45
* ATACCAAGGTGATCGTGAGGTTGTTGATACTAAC | 0.63
* TGTCAAAGTTCCAAGGTAACGTAAGTATCCACAC | 0.659

q: So what does the record say about PBM binding z-score for `TCTAGCAGGCCAGAGGGTCACTGAAGAGGTACGG` ?
a: 2.34

q: So what does the record say about PBM binding z-score for `CAAACTAGGTCACCGGAAGATCAAAGTCCGCATG` ?
a: 4.28

q: So what does the record say about PBM binding z-score for `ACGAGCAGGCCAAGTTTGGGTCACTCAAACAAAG` ?
a: 1.54

q: So what does the record say about PBM binding z-score for `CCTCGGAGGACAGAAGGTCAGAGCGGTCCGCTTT` ?
a: 3.18

q: So what does the record say about PBM binding z-score for `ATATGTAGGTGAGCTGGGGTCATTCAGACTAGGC` ?
a: 3.08

====

- Test system: VDR homodimer (NR concentration 270 nM)
- Procedure Text: PBM binding z-score (relative to random genomic background probes); higher = stronger binding; sequences stand for … in GC…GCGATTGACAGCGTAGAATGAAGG
Form field: PBM binding z-score (one value per entry).
// return just the number, without any unit appended

* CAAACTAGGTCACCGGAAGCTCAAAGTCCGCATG | 0.814
* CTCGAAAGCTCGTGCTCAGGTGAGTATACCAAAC | -0.591
* AGAACGAGGGCAATGAGTTGGTAGCACGGGTGGC | 1.98
* TCTTGGAGATCAATAGAGGTTAAGAAAGTGCGCT | 0.159
* ACTTACGGGTCAGCGAGGTTATAGCACGCGTATA | 2.44

q: So what does the record say about PBM binding z-score for `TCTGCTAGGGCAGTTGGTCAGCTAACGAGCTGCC` ?
a: -1.08

q: So what does the record say about PBM binding z-score for `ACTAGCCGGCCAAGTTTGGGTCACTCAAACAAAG` ?
a: 0.121

====

- Test system: RARb:RXRa (NR concentration 270 nM, RXRa partner concentration 90 nM)
- Procedure Text: PBM binding z-score (relative to random genomic background probes); higher = stronger binding; sequences stand for … in GC…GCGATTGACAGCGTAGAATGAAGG
Experimental Readout: PBM binding z-score
// return just the number, without any unit appended

Some sequences with known PBM binding z-score results, for comparison:
- ACTTACGGGTCAACGATGTTATAGCACGCGTATA: 4.09
- TCATACAGGTAAACAGGTGAAAGTCCGTAAGTTA: 0.895
- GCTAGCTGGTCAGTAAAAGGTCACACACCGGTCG: 4.23
- TCAGACAGGTCAAGGTAACTCAGGTACGCAGTCG: 4.31

As a next step, examine the sequence that follows.
q: So what does the record say about PBM binding z-score for `ACTATTAGTTGACTTAGAGCAACCGATACGACGC` ?
a: 0.073
